Assay: qHTS of pediatric cancer cell lines to identify multiple opportunities for drug repurposing: Confirmatory screen for U-2 OS cells (AID 1347122); note: nearly all actives have a fitted effect of over 65% in size
Conditions: U-2 OS osteosarcoma cell viability; series mostly up to 45.9 µM
Protocol: Drug repurposing or repositioning has been offered as a strategy for drug development in oncology programs. […] [1] Shen, M et al. Quantitative high-throughput phenotypic screening of pediatric cancer cell lines identifies multiple opportunities for drug repurposing. […] Cells were assayed in growth media at a density of 500-1,000 cells/well. […] After a 15 min incubation at room temperature, samples were analyzed for luminescence intensity using a ViewLux High-throughput CCD imager equipped with clear filters.
Records with an inconclusive call do not appear. Active and inactive are the calls of the source. Calls come from the whole dose curve; as a rule, active = well fitted cell-killing curve with a large enough effect; inconclusive = small, poorly fitted or top-dose-only effect; inactive = no such curve, though single readings can be large or run the other way.
Outcome codes: active, inactive

                                smiles_repr  class_name
0  O=C1NC(=O)C(=Cc2ccc3nccc(-c4ccncc4)c3c2)S1      active
1         COc1cc2ncnc(Nc3cccc(Br)c3)c2cc1OC    inactive
2  CCc1cc(C(C)=NOCc2ccc(C3CCCCC3)c(C(F)(F)F)c2)ccc1CN1CC(C(=O)O)C1    inactive
3  CNC(=O)Nc1ccc(-c2nc(N3CC4CCC(C3)O4)c3cnn(C4CCC5(CC4)OCCO5)c3n2)cc1      active
4  CCN(CC)CCNC(=O)c1c(C)[nH]c(C=C2C(=O)Nc3ccc(F)cc32)c1C      active
5  CCS(=O)(=O)Nc1ccc2[nH]c(O)c(C(=Nc3ccc(CN4CCCCC4)cc3)c3ccccc3)c2c1      active
6  Cc1[nH]c(C=C2C(=O)Nc3ccccc32)c(C)c1CCC(=O)O    inactive
7  Cn1cc(CNCC2CCN(c3ncc(C(=O)NO)cn3)CC2)c2ccccc21      active
8  CC(C)(N)c1ccc(-c2nc3ccccc3nc2-c2ccccc2)cc1    inactive

---

Assay: qHTS profiling of the MIPE4 collection as inhibitors of Plasmodium falciparum (3D7) proliferation (AID 743344)
Settings: P. falciparum 3D7 in erythrocytes, SYBR Green DNA fluorescence, 72 h; at 28.5 µM (top of the series) unless noted
// class assignment uses parasite growth, % of DMSO control with these ranges: Low: < 6%; Mid: ≥ 6% and < 90%; High: ≥ 90%

In [3]: df
Out[3]:
                                   compound  class_name
0  CCS(=O)(=O)Nc1ccc2[nH]c(O)c(C(=Nc3ccc(CN4CCCCC4)cc3)c3ccccc3)c2c1         Mid
1  CN1CCCN(C(=O)c2cccc(-c3ccc(C=C4C(=O)Nc5ccc(Cl)cc54)o3)c2)CC1         Low
2  NC(=O)c1ncn([C@@H]2O[C@H](CO)[C@@H](O)[C@@H]2O)c1N        High
3  CCn1c(=O)c2c(nc(C=Cc3ccc(OC)c(OC)c3)n2C)n(CC)c1=O         Mid
4  CCN(CC)Cc1ccc2cc(COC(=O)Nc3ccc(C(=O)NO)cc3)ccc2c1         Low
5  C[C@H](CCC(=O)O)[C@H]1CCC2C3C[C@H](O)[C@@H]4C[C@H](O)CC[C@]4(C)C3CC[C@@]21C (some centres undefined)         Mid
6  O=c1[nH]c(=O)n([C@H]2C[C@@H](O)[C@@H](CO)O2)cc1F        High
